In this section we review reported remaining activity at 10 µM values for a set of compounds.
Target: ZAP70(SH2dom1.dom2.) (Homo sapiens, UniProt P43403)
Sequence (P43403 1-254 limits assumed): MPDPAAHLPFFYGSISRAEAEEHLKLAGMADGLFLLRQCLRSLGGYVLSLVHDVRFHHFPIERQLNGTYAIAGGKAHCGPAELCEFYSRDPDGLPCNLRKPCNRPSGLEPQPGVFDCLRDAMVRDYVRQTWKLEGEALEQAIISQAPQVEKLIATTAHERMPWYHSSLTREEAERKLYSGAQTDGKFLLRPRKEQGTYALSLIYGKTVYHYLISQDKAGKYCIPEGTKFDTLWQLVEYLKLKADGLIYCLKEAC
Test: biochemical
Settings: read-out: percent of DMSO vehicle control
Report the value in % with no unit label.

Please review the entries below; each comes with its answer.
CC(C)(C)[C@H](NC(=O)/C=C/c1ccc(OP(=O)(O)O)cc1)C(=O)N1CCC[C@H]1C(=O)N(c1ccccc1)c1ccc(I)cc1 [STAT6-IN-3] = 60.7
CC(=O)N1CC[C@H]2CC[C@@H](C(=O)N[C@@H](CCC(N)=O)C(=O)NC(c3ccccc3)c3ccccc3)N2C(=O)[C@@H](NC(=O)c2cc3cc(C(F)(F)P(=O)(O)O)ccc3[nH]2)C1 [SI-109] = 129

Return reported remaining activity at 10 µM; argument: NC(=O)CC[C@H](NC(=O)[C@@H]1CC[C@@H]2CCN(C(=O)CCCCCC#Cc3cccc4c3CN(C3CCC(=O)NC3=O)C4=O)C[C@H](NC(=O)c3cc4cc(C(F)(F)P(=O)(O)O)ccc4[nH]3)C(=O)N21)C(=O)NC(c1ccccc1)c1ccccc1 (some centres unmarked) [SD-36] 95.6

Return reported remaining activity at 10 µM; argument: O=C(COc1ccc2cc(C(=O)Nc3ccccc3)ccc2c1)NCc1ccc(OP(=O)(O)O)c(OP(=O)(O)O)c1 [Stafib-1] 58

Return reported remaining activity at 10 µM; argument: C/C(=C\C(=O)N[C@H](C(=O)N1CCC[C@H]1C(=O)N(c1ccccc1)c1ccc(I)cc1)C(C)(C)C)c1ccc(OP(=O)(O)O)cc1 [STAT6-IN-1] 51.4

###

Molecular target: STAT3(N567K)-nonphosphorylated (Homo sapiens, UniProt P40763, N567K)
Construct: made in house; host or cells: HEK293 (transient transfection), unpurified extract, dephosphorylated by endogenous phosphatases
Sequence (P40763 whole entry N567K): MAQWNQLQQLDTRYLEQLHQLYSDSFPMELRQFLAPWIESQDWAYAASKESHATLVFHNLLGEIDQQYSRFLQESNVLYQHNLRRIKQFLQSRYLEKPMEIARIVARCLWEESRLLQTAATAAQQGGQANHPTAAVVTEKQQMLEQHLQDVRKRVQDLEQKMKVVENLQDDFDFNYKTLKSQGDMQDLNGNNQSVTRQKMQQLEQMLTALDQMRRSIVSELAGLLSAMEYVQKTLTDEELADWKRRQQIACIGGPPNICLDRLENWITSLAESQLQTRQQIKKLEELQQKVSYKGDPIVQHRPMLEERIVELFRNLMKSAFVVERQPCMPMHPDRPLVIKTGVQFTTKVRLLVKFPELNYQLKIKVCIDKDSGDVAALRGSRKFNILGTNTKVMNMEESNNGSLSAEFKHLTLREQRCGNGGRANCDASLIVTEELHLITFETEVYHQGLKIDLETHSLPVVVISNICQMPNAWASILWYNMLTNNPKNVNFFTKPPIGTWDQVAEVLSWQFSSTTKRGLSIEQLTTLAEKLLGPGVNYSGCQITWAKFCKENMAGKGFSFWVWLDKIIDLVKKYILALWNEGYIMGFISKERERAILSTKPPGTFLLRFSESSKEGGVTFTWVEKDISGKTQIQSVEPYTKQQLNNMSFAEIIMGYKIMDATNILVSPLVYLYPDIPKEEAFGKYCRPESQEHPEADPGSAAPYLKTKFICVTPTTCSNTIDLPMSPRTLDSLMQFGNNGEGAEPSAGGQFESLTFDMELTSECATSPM
Assay: biochemical
Format: binding
Conditions: dose-response; read-out: KD
Experimental readout: Kd (nM)
Report the value in nM with no unit label.

CC(C)(C)[C@H](NC(=O)/C=C/c1ccc(OP(=O)(O)O)cc1)C(=O)N1CCC[C@H]1C(=O)N(c1ccccc1)c1ccc(I)cc1 = 500

We next turn to a different compound, shown below.
Return reported Kd; argument: "C/C(=C\C(=O)N[C@H](C(=O)N1CCC[C@H]1C(=O)N(c1ccccc1)c1ccc(I)cc1)C(C)(C)C)c1ccc(OP(=O)(O)O)cc1" 190

###

Target: ITK (Homo sapiens)
Construct: the DNA-tagged SH2 domain concentrations used in this study were <0.1 nM; made in house; host or cells: HEK293 (transient transfection, unpurified extract)
Sequence (Q08881 239-338 limits assumed): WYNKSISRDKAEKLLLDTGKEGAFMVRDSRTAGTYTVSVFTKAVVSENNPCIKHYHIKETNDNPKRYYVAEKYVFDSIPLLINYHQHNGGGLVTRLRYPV
Experiment: biochemical
Format: binding
Conditions: primary screen, 10 μM
In this section we review reported percent of DMSO vehicle control values for a set of compounds.
Report the value in % with no unit label.

Return reported percent of DMSO vehicle control; argument: "CC(=O)N1CC[C@H]2CC[C@@H](C(=O)N[C@@H](CCC(N)=O)C(=O)NC(c3ccccc3)c3ccccc3)N2C(=O)[C@@H](NC(=O)c2cc3cc(C(F)(F)P(=O)(O)O)ccc3[nH]2)C1" 124.2

Return reported percent of DMSO vehicle control; argument: "O=C(CCl)Nc1cccc(CNC(=O)[C@H](Cc2ccc(OP(=O)(O)O)cc2)NC(=O)Cc2ccc(F)cc2)c1" 51.4

Return reported percent of DMSO vehicle control; argument: "CC(C)(C)[C@H](NC(=O)/C=C/c1ccc(OP(=O)(O)O)cc1)C(=O)N1CCC[C@H]1C(=O)N(c1ccccc1)c1ccc(I)cc1" 0

###

Target: TNS2 (Homo sapiens, UniProt Q63HR2)
Construct: made in house; host or cells: HEK293 (transient transfection), unpurified extract
Sequence (Q63HR2 1-1409): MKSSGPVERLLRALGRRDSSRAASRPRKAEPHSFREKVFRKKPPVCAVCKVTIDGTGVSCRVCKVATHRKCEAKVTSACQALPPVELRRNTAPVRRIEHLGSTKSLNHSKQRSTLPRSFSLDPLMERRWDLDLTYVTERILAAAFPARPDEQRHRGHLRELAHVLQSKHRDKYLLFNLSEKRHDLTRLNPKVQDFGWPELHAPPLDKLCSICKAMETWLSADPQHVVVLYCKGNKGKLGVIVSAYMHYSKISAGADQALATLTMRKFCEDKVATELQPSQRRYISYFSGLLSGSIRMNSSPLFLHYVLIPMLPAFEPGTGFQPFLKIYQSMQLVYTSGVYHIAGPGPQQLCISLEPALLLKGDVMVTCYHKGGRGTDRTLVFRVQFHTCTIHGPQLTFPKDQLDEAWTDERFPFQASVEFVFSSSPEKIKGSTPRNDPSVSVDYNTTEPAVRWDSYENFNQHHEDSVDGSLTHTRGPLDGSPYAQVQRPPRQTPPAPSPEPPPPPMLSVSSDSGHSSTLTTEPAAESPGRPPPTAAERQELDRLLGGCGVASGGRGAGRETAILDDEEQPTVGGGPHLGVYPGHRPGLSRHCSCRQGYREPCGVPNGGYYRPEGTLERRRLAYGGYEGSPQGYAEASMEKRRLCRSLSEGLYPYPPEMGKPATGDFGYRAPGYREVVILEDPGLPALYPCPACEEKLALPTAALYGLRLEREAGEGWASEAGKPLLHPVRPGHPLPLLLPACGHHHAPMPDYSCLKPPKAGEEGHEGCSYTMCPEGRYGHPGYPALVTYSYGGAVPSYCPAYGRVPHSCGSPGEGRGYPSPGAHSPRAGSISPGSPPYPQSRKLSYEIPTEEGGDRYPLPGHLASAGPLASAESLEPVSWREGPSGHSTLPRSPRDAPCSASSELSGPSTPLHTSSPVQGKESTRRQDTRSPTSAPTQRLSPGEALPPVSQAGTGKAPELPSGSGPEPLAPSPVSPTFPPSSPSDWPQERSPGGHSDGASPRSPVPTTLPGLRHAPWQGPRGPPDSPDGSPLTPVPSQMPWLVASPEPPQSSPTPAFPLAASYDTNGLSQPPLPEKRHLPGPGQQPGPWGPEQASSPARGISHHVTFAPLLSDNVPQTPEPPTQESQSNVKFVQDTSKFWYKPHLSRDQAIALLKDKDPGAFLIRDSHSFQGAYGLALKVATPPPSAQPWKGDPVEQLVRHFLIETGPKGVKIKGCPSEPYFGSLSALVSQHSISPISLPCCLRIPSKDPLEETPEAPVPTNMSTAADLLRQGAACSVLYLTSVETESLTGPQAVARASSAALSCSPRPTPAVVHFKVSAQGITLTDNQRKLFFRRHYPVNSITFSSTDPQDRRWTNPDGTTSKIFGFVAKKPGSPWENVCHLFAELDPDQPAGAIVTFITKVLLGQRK
Assay: biochemical
Format: binding
Conditions: primary screen, 10 μM; read-out: percent of DMSO vehicle control
Experimental readout: remaining activity at 10 µM

Please review the entries below; each comes with its answer.
C/C(=C\C(=O)N[C@H](C(=O)N1CCC[C@H]1C(=O)N(c1ccccc1)c1ccc(I)cc1)C(C)(C)C)c1ccc(OP(=O)(O)O)cc1 = 55.9%
O=C(CCl)Nc1cccc(CNC(=O)[C@H](Cc2ccc(OP(=O)(O)O)cc2)NC(=O)Cc2ccc(F)cc2)c1 = 74.1%
CC(C)(C)[C@H](NC(=O)/C=C/c1ccc(OP(=O)(O)O)cc1)C(=O)N1CCC[C@H]1C(=O)N(c1ccccc1)c1ccc(I)cc1 = 86.8%

We next turn to a different molecule, shown below.
Return reported remaining activity at 10 µM; argument: "O=C(COc1ccc2cc(C(=O)Nc3ccccc3)ccc2c1)NCc1ccc(OP(=O)(O)O)c(OP(=O)(O)O)c1" 86%

###

Molecular target: MATK (Homo sapiens)
Construct: the DNA-tagged SH2 domain concentrations used in this study were <0.1 nM; made in house; host or cells: HEK293 (transient transfection, unpurified extract)
Sequence (P42679 122-211 limits assumed): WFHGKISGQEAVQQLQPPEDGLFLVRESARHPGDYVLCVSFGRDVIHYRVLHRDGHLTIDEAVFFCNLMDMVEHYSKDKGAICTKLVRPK
Assay: biochemical
Assay type: binding
Settings: dose-response; read-out: KD
Experimental readout: Kd (µM)
Report the value in µM with no unit label.

Return reported Kd; argument: "C/C(=C\C(=O)N[C@H](C(=O)N1CCC[C@H]1C(=O)N(c1ccccc1)c1ccc(I)cc1)C(C)(C)C)c1ccc(OP(=O)(O)O)cc1" 3

###

In this section we review reported remaining activity at 10 µM values for a set of compounds.
Target: BLK (Homo sapiens, UniProt P51451)
Construct: the DNA-tagged SH2 domain concentrations used in this study were <0.1 nM; made in house; host or cells: HEK293 (transient transfection; unpurified extract)
Sequence (P51451 124-220 limits assumed): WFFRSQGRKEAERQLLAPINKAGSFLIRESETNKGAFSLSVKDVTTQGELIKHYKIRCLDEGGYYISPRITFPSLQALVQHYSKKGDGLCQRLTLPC
Assay: biochemical
Format: binding
Conditions: primary screen, 10 μM; read-out: percent of DMSO vehicle control
Report the value in % with no unit label.

Please review the entries below; each comes with its answer.
O=C(COc1ccc2cc(C(=O)Nc3ccccc3)ccc2c1)NCc1ccc(OP(=O)(O)O)c(OP(=O)(O)O)c1 = 91.8
CC(C)(C)[C@H](NC(=O)/C=C/c1ccc(OP(=O)(O)O)cc1)C(=O)N1CCC[C@H]1C(=O)N(c1ccccc1)c1ccc(I)cc1 = 67.6
C/C(=C\C(=O)N[C@H](C(=O)N1CCC[C@H]1C(=O)N(c1ccccc1)c1ccc(I)cc1)C(C)(C)C)c1ccc(OP(=O)(O)O)cc1 = 49.1

Return reported remaining activity at 10 µM; argument: "O=C(CCl)Nc1cccc(CNC(=O)[C@H](Cc2ccc(OP(=O)(O)O)cc2)NC(=O)Cc2ccc(F)cc2)c1" 116

Values from paper PMC12951562
